Entries annotated with measured log10 of TGI
tested on: HCC-2998 colon; assay: NCI tumour cell line growth inhibition, 48 h
quantity: log10 of TGI (log10 of the value in µM)

{"columns": ["compound", "log10 of TGI"],
 "data": [
  ["COc1cc2nnn3c4ncccc4c(N=O)c3c2cc1OC", 1.03],
  ["CCC(=O)c1cc([N+](=O)[O-])c(Br)s1", 1.49],
  ["CN(C)CCCN1c2ccccc2Sc2ccc(Cl)cc21", 0.62],
  ["COC(=O)n1c(C[P+](c2ccccc2)(c2ccccc2)c2ccccc2)cc2ccccc21", 1.01],
  ["C=C[C@@](C)(/C=C/c1ccc(O)cc1)CCC=C(C)C", 1.55],
  ["CN(C)CCCC1(c2ccc(F)cc2)OCc2cc(-c3cncc4ccccc34)ccc21 (configuration not stated)", 0.57],
  ["COc1ccc(CC2=NCCc3cc(OC)c(OC)cc32)cc1Br", 1.55],
  ["O=C1C=C(N2CCN(c3ccccn3)CC2)C(=O)c2c(O)ccc(O)c21", 1.63],
  ["CCOc1ccc(-c2oc(/C=N/NS(=O)(=O)c3ccc(C)cc3)c([N+](=O)[O-])c2-c2ccc(OCC)cc2)cc1", 1.49]
]}

Values compiled from PubChem BioAssay (NCI).
